# System: UniProt:P43088
# Protocol Notes: In vitro test of inhibition of human FP receptor activity (PGF2α-induced calcium flux in FP-expressing CHEM1 cells)
# Test Conditions: PGF2α 2 nM, some mean values of multiple determinations
Rule: IC50 below 7 nM gives rule met. Equal to or above 7 nM gives rule not met.

**Q:** Does the reported IC50 of Cc1c(N2CCCC(F)C2)nc2ccc(Br)cc2c1C(=O)NCC(CCC(=O)O)c1ccccc1OC(F)(F)F (single isomer, unassigned; (-)) [Example 201] stay below 7 nM?
**A:** rule met

**Q:** Input Cc1c(N2CCCC2)nc2ccc(Br)cc2c1C(=O)NCC(CCC(=O)O)c1c(F)cccc1F (racemic) [Example 247] ; condition: IC50 strictly below 7 nM. Does it hold?
**A:** rule not met

**Q:** Please determine if Cc1c(N2CC=CCC2)nc2ccc(Br)cc2c1C(=O)NCC(CCC(=O)O)c1ccccc1Cl (racemic) [Example 29] is below 7 nM in terms of IC50.
**A:** rule not met

**Q:** Please determine if Cc1c(N2CCCC(F)C2)nc2ccc(Br)cc2c1C(=O)NCC(CCC(=O)O)c1ccccc1OC(F)(F)F (single isomer, unassigned; (-)) [Example 202] is below 7 nM in terms of IC50.
**A:** rule met

**Q:** Determine whether this molecule shows IC50 lower than 7 nM (ties excluded): [2H]C1([2H])N(c2nc3ccc(Br)cc3c(C(=O)NCC(CCC(=O)O)c3ccccc3C(F)(F)F)c2C)C([2H])([2H])C([2H])([2H])C1([2H])[2H] (single isomer, unassigned; (-))
**A:** rule not met

* * *

# System: FP receptor (Homo sapiens (Human), UniProt P43088)
# Sequence (P43088 whole entry): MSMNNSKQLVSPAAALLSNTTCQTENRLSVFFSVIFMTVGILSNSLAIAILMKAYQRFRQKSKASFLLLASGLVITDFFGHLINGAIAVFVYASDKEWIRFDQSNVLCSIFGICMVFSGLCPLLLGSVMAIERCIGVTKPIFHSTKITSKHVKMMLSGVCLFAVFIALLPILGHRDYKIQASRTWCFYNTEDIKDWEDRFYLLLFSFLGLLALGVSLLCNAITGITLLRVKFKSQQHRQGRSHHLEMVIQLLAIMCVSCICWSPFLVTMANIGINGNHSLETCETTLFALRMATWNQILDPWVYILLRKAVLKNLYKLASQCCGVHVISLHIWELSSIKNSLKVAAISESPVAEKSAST
# Protocol Notes: In vitro test of inhibition of human FP receptor activity (PGF2α-induced calcium flux in FP-expressing CHEM1 cells)
# Test Conditions: PGF2α 2 nM, some mean values of multiple determinations
Catalogue of pIC50 readings, one per entry.
The meaning of pIC50 here: minus log10 of the concentration in molar units.

# count of solved cases: 5
{"Compound": "Cc1c(N2CCCCC2)nc2ccc(Br)cc2c1C(=O)NCC(CCC(=O)O)c1c(F)cccc1F (single isomer, unassigned; (+)) [Example 245]", "System": "FP receptor (Homo sapiens (Human), UniProt P43088)", "Measured Parameter": "pIC50", "Test Value": 7.57}
{"Compound": "Cc1c(N2CC=CC2)nc2ccc(Br)cc2c1C(=O)NCC(CCC(=O)O)c1cc(F)ccc1Cl (racemic)", "System": "FP receptor (Homo sapiens (Human), UniProt P43088)", "Measured Parameter": "pIC50", "Test Value": 7.32}
{"Compound": "Cc1c(N2CCCC(C)C2)nc2ccc(Br)cc2c1C(=O)NCC(CCC(=O)O)c1ccccc1Cl (stereo not shown) [Example 45]", "System": "FP receptor (Homo sapiens (Human), UniProt P43088)", "Measured Parameter": "pIC50", "Test Value": 8.33}
{"Compound": "Cc1c(NCc2ccccc2)nc2ccc(Br)cc2c1C(=O)NCC(CCC(=O)O)c1ccccc1Cl (racemic)", "System": "FP receptor (Homo sapiens (Human), UniProt P43088)", "Measured Parameter": "pIC50", "Test Value": 6.02}
{"Compound": "Cc1c(N2CCN(C)CC2)nc2ccc(Br)cc2c1C(=O)NCC(CCC(=O)O)c1ccccc1Cl (racemic)", "System": "FP receptor (Homo sapiens (Human), UniProt P43088)", "Measured Parameter": "pIC50", "Test Value": 6.07}

**Q:** Tell me pIC50 reported for Cc1c(N2CCCC(F)(F)C2)nc2ccc(Br)cc2c1C(=O)NCC(CCC(=O)O)c1c(F)cccc1F (racemic) [Example 250]
**A:** 7.70

**Q:** Supply pIC50 value. Item: [2H]C1([2H])N(c2nc3ccc(Br)cc3c(C(=O)NCC(CCC(=O)O)c3ccccc3OC(F)(F)F)c2C)C([2H])([2H])C([2H])([2H])C1([2H])[2H] (single isomer, unassigned; (+))
**A:** 7.96

**Q:** Could you please provide reported pIC50 for CCC1CCCN(c2nc3ccc(Br)cc3c(C(=O)NCC(CCC(=O)O)c3ccccc3C(F)(F)F)c2C)C1 (single isomer, unassigned; (+)) [Example 193] ? Thanks!
**A:** 9.21

**Q:** State its pIC50: Cc1c(NCC(C)C)nc2ccc(Br)cc2c1C(=O)NCC(CCC(=O)O)c1ccccc1Cl (racemic)
**A:** 6.60

**Q:** Quickly give me recorded pIC50 for Cc1c(N2CC=CCC2)nc2ccc(Br)cc2c1C(=O)NCC(CCC(=O)O)c1ccccc1Cl (single isomer, unassigned) [Example 30]
**A:** 8.06

**Q:** Please list pIC50 recorded for the compound Cc1c(N2CCCC(C(F)F)C2)nc2ccc(Br)cc2c1C(=O)NCC(CCC(=O)O)c1ccccc1Cl (stereo not shown)
**A:** 8.01

**Q:** Report measured pIC50; entry is Cc1c(N2CCCC(F)(F)C2)nc2ccc(Br)cc2c1C(=O)NCC(CCC(=O)O)c1ccccc1Cl (single isomer, unassigned; (+)) [Example 52]
**A:** 8.15

**Q:** Look up and state reported pIC50 for Cc1c(NCCc2ccccc2)nc2ccc(Br)cc2c1C(=O)NCC(CCC(=O)O)c1ccccc1Cl (racemic)
**A:** 7.82
